method: solvent given as SMILES
measurementParameters: in CC#N
# emission maximum per record follows
reportedProperty: emission maximum (nm)

molecule: CCN(CC)c1ccc2c(C(F)(F)F)cc(=O)oc2c1
readingUnit: nm
endpointResult: 501
--
molecule: COc1cc(/C=C/c2nc3ccccc3o2)c(OC)cc1/C=C/c1nc(C)nc(/C=C/c2cc(OC)c(/C=C/c3nc4ccccc4o3)cc2OC)n1
readingUnit: nm
endpointResult: 502
--
molecule: CC(C)(C)c1ccc2c(c1)c1cc(C(C)(C)C)ccc1n2-c1ccc(C#Cc2ccc(C=C(C#N)C#N)cc2)cc1
readingUnit: nm
endpointResult: 490

* * *

# emission maximum per record follows
method: solvent given as SMILES
measurementParameters: in CC(C)O
reportedProperty: emission maximum (nm)

molecule: CN(C)c1ccc(C#Cc2ccc(C#N)cc2)cc1
reportedProperty: emission maximum
endpointResult: 510

molecule: COc1nc(Cl)nc(Nc2ccc3c4c(cccc24)C(=O)c2ccccc2-3)n1
reportedProperty: emission maximum
endpointResult: 570.13

molecule: CC(C)CCCCN1CCc2c1ccc1c3c(ccc21)CCCC3=O
reportedProperty: emission maximum
endpointResult: 637

molecule: COc1ccc(/C=C/c2ccccc2)cc1OC
reportedProperty: emission maximum
endpointResult: 374

* * *

# emission maximum per record follows
method: solvent given as SMILES
measurementParameters: in C1CCCCC1
reportedProperty: emission maximum (nm)

molecule: c1ccc(-c2c3c(c(-c4ccccc4)c4c2-c2ccccc2C4)-c2ccccc2C3)cc1
endpointResult: 375
--
molecule: CCCC1(CCC)c2cc(-c3ccc4c(c3)C(CCC)(CCC)c3cc(C(C)(C)CC)ccc3-4)ccc2-c2ccc(-c3ccc4c(c3)C(CCC)(CCC)c3cc(C(C)(C)CC)ccc3-4)cc21
endpointResult: 400
--
molecule: CN(C)c1ccc(/C=C/C=C/c2ccc(B(O)O)cc2)cc1
endpointResult: 441

* * *

method: solvent given as SMILES
measurementParameters: in C1CCOC1
reportedProperty: emission maximum

compound: CC(=O)c1ccc2ccc3cccc4ccc1c2c34
endpointResult: 387 nm
--
compound: COc1cc(OC)cc(C2=C3C(C)=C(I)C(/C=C/c4c[nH]c5ccccc45)=[N+]3[B-](F)(F)n3c(/C=C/c4c[nH]c5ccccc45)c(I)c(C)c32)c1
endpointResult: 748 nm
--
compound: Cc1ccc(C2=C3C=CC(C#Cc4ccccc4)=[N+]3[B-](F)(F)n3c(Cl)ccc32)cc1
endpointResult: 573 nm
--
compound: CC(C)(C)c1ccc2c(c1)c1cc(C(C)(C)C)ccc1n2-c1ccc(-c2nc(-c3ccccc3)nc(-c3ccccc3)n2)c2c1c1ccccc1n2-c1ccccc1
endpointResult: 450 nm
--
compound: C(=C\c1cc(/C=C/c2ccc(-n3c4ccccc4c4ccccc43)cc2)cc(/C=C/c2ccc(-n3c4ccccc4c4ccccc43)cc2)c1)/c1ccc(-n2c3ccccc3c3ccccc32)cc1
endpointResult: 403 nm
--
compound: N#Cc1c(N2CCCCC2)cc(-c2ccc3ccccc3c2)c2c1-c1ccccc1C2=O
endpointResult: 527 nm
--
compound: CC1=N/C(=C\c2ccccc2N)C(=O)N1C
endpointResult: 513 nm
--
compound: CC(C)(C)c1ccc2c3c(c4ccc(C(C)(C)C)cc4c2c1)=[N+]1C(=C(c2ccccc2)c2cc4c5ccc(C(C)(C)C)cc5c5cc(C(C)(C)C)ccc5c4n2[B-]1(F)F)C=3
endpointResult: 713 nm
--
compound: COc1cc2c3cc(OC)c(OC)cc3c3cc4c(C)cc(=O)oc4cc3c2cc1OC
endpointResult: 489 nm
--
compound: CCn1c2ccccc2c2cc(C#Cc3cc(C#Cc4ccc5c(c4)c4ccccc4n5CC)nc(OC)n3)ccc21
endpointResult: 445 nm
--
compound: CC(C)(C)c1ccc(C2=c3c(c4ccc(C(C)(C)C)cc4c4cc(C(C)(C)C)ccc34)=[N+]3C2=C(c2ccccc2)c2c(-c4ccc(C(C)(C)C)cc4)c4c5ccc(C(C)(C)C)cc5c5cc(C(C)(C)C)ccc5c4n2[B-]3(F)F)cc1
endpointResult: 712 nm
--
compound: CN(C)c1ccc(C#Cc2ccc(C#N)cc2)cc1
endpointResult: 505 nm
--
compound: CN(CC(O)c1cccc(O)c1)c1ccc([N+](=O)[O-])c(C2CC(c3cccc4ccccc34)=NN2c2ccccc2)c1 (centres undefined)
endpointResult: 467 nm
--
compound: CC(=O)c1ccc(-c2ccc3c(c2)C(=O)c2cc(-c4ccc(C(C)=O)cc4)ccc2-3)cc1
endpointResult: 375 nm

* * *

method: solvent given as SMILES
measurementParameters: in Cc1ccccc1
# emission maximum per record follows

compound: CCCCCCC(CCCCCC)n1c(=O)c2c3ccc4cccc5c6cccc7ccc(c2c1=O)c(c76)c3c45
emission maximum / nm: 491

compound: [O-]c1ccccc1-c1[nH+]c2c3ccccc3c3ccccc3c2o1
emission maximum / nm: 495

compound: COC(=O)CN1C(=O)c2cc3ccc(N(C)C)cc3cc2C1=O
emission maximum / nm: 491

compound: CC(C)c1cc(C(C)C)c(B2c3cc(N4c5ccccc5Oc5ccccc54)ccc3N(c3ccccc3)c3ccc(N4c5ccccc5Oc5ccccc54)cc32)c(C(C)C)c1
emission maximum / nm: 510.2

compound: c1cc2c([nH]c3c4[nH]c5sccc5c4c4nsnc4c23)s1
emission maximum / nm: 496

compound: CN(CC(O)c1cccc(O)c1)c1ccc([N+](=O)[O-])c(C2CC(c3cccc4ccccc34)=NN2c2ccccc2)c1 (configuration not stated)
emission maximum / nm: 497

compound: Cn1c(=O)c(/N=N/c2cc(S(=O)(=O)O)ccc2C(=O)O)c(O)c2ccccc21
emission maximum / nm: 509

* * *

method: solvent given as SMILES
measurementParameters: in C1CCOC1

molecule: COc1cc2c(c(OC)c1OC)c1ccc3cccc4c5cccc6oc(=O)c2c(c65)c1c34
emission maximum, nm: 492
--
molecule: C(=C\c1ccncn1)/c1ccc(N(c2ccccc2)c2ccccc2)cc1
emission maximum, nm: 496
--
molecule: CC(C)(C)c1ccc2c(c1)c1cc(C(C)(C)C)ccc1n2-c1cccc(-c2nc(-c3cccc(-n4c5ccc(C(C)(C)C)cc5c5cc(C(C)(C)C)ccc54)c3)nc(-c3cccc(P(=O)(c4ccccc4)c4ccccc4)c3)n2)c1
emission maximum, nm: 514.41
--
molecule: COc1cc(/C=C/c2nc3ccccc3o2)c(OC)cc1/C=C/c1nc(C)nc(/C=C/c2cc(OC)c(/C=C/c3nc4ccccc4o3)cc2OC)n1
emission maximum, nm: 487

* * *

method: solvent given as SMILES
measurementParameters: in Cc1ccccc1
API: label(entry) gives 1 (yes) if the entry's emission maximum is strictly smaller than 500 nm; on equality or larger values it gives 0 (no).

molecule: Cc1ccc(-n2c3ccccc3c3cc(C(=C(C#N)C#N)c4ccccc4)ccc32)cc1
group: 0 (no)

molecule: CC(C)(C)c1ccc2c(c1)c1cc(C(C)(C)C)ccc1n2-c1cccc(-c2nc(-c3cccc(-n4c5ccc(C(C)(C)C)cc5c5cc(C(C)(C)C)ccc54)c3)nc(-c3cccc(P(=O)(c4ccccc4)c4ccccc4)c3)n2)c1
group: 1 (yes)

molecule: CN(C)c1ccc(C#Cc2ccc3ccc4ccc(C#Cc5ccc(N(C)C)cc5)c5ccc2c3c45)cc1
group: 1 (yes)

molecule: COC1=[N+]2C(=C(c3ccc(C)cc3)c3ccc(OC)n3[B-]2(F)F)C=C1
group: 0 (no)

molecule: CC(=O)c1ccc2ccc3cccc4ccc1c2c34
group: 1 (yes)

molecule: CC(C)(C)c1ccc2c(c1)c1cc(C(C)(C)C)ccc1n2-c1ccc(C#Cc2ccc(C=C(C#N)C#N)cc2)cc1
group: 0 (no)

molecule: COc1cc(Br)cc2cc(-c3cc4cc(Br)cc(OC)c4oc3=O)oc12
group: 1 (yes)

molecule: CN(C)/C=N\c1ccc2c3c(cccc13)C(=O)c1ccccc1-2
group: 0 (no)

* * *

method: solvent given as SMILES
measurementParameters: in ClCCl
# emission maximum per record follows

compound: CCCCCCCCC1(CCCCCCCC)c2cc(C#CC#Cc3ccc(N(c4ccccc4)c4ccccc4)cc3)ccc2-c2ccc(C=O)cc21
emission maximum (nm): 520
--
compound: N#Cc1cnc(-c2c3ccccc3cc3ccccc23)nc1
emission maximum (nm): 492
--
compound: Nc1ccc2c(c1)Cc1ccccc1-2
emission maximum (nm): 353
--
compound: C1=C2C3=C(C4=[N+]2[B-]2(Oc5ccccc54)Oc4ccccc4-c4c5c(c1n42)C1CCC5CC1)C1CCC3CC1 (stereo not drawn)
emission maximum (nm): 645
--
compound: COc1ccc(C2=C3C(/C=C/c4cc(OC)c(OC)c(OC)c4)=C(C=O)C(C)=[N+]3[B-](F)(F)n3c(C)c(C=O)c(C=Cc4cc(OC)c(OC)c(OC)c4)c32)cc1
emission maximum (nm): 673
--
compound: COC(=O)C1=C(C(=O)OC)C2(c3ccccc3-c3ccc([N+](=O)[O-])cc32)C2(/C=C/c3ccccc3)c3cc(OC)c(OC)cc3CCN12 (stereo not drawn)
emission maximum (nm): 510
--
compound: COc1ccc(-c2cc3c(ccc4sc5ccc6sccc6c5c43)s2)cc1
emission maximum (nm): 409
--
compound: c1ccc(-n2nc(-c3ccc(-c4ccc5c(c4)C(c4ccccc4)(c4ccccc4)c4ccccc4-5)cc3)nc2-c2ccccn2)cc1
emission maximum (nm): 358

# credit: the Deep4Chem optical property database
